- MEASURED_TARGET: Axl (Homo sapiens, UniProt P30530)
- Sequence (P30530 26-894): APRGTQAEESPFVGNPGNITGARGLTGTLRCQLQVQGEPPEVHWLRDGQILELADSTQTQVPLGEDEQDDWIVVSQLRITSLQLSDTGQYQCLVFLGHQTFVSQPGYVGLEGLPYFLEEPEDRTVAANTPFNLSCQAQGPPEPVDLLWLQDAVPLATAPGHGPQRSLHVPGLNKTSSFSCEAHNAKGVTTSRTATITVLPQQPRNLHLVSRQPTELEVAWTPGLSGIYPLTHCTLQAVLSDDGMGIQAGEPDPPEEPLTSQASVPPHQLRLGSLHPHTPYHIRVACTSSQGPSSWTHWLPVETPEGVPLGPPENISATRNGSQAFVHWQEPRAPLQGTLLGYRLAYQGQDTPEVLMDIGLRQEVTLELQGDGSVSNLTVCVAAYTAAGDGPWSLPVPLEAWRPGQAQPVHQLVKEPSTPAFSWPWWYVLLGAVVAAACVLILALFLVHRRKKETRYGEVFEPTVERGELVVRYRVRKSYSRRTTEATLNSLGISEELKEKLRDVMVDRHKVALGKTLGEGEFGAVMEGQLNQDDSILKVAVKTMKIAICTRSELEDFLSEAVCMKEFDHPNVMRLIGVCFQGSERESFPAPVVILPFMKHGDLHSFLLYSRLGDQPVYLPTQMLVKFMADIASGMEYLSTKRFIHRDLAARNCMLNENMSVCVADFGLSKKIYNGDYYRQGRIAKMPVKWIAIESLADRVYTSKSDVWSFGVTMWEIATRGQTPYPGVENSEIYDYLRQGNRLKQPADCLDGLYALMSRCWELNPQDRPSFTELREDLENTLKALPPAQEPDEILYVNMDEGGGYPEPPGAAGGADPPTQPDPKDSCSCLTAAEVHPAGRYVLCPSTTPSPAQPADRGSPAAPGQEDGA
- ASSAY_INFO: LanthaScreen Eu kinase binding assay for Axl
- RUN_CONDITIONS: read-out: Axl kinase binding activity (Kd)
pKd: −log10 of the molar value.
ENDPOINT: pKd

Solved entries:
CCCn1cc(OCC(F)(F)F)c(C(=O)Nc2ccc(Oc3ccnc4cc(OC)c(OC)cc34)cc2C)n1 ... > 7.00
CCCn1cc(OCC(F)(F)F)c(C(=O)Nc2ccc(Oc3ccnc4cc(OC)c(OC)cc34)cc2F)n1 ... > 7.00
COc1cc2nccc(Oc3ccc(NC(=O)c4nn(C5CCOC5)cc4OCC(F)(F)F)nn3)c2cc1OC (stereo not drawn) ... > 7.00
COc1cc2nccc(Oc3ccc(NC(=O)c4nn(CC(C)O)cc4OCC4CN(C)C4)nc3)c2cc1OC (stereo not drawn) ... ≤ 6.30
CCCn1cc(OCCC(O)CO)c(C(=O)Nc2ccc(Oc3ccnc4cc(OC)c(OC)cc34)cn2)n1 (stereo not drawn) ... > 7.00

Reported pKd for COc1cc2nccc(Oc3ccc(NC(=O)c4nn(C5CCC5)cc4OCC(F)(F)F)nc3)c2cc1OC was > 7.00

Reported pKd for COCCn1cc(OCC(F)(F)F)c(C(=O)Nc2ccc(Oc3ccnc4cc(OC)c(OC)cc34)cn2)n1 was > 7.00

Reported pKd for COc1cc2nccc(Oc3ccc(NC(=O)c4nn(CC(C)O)cc4OCC(F)(F)F)cn3)c2cc1OC (stereo not drawn) was > 7.00

Reported pKd for COc1cc2nccc(Oc3ccc(NC(=O)c4nn(C5CCNC5)cc4OCC(F)(F)F)cc3C)c2cc1OC (stereo not drawn) was ≤ 6.30

Reported pKd for CCCn1cc(OCCC(F)(F)F)c(C(=O)Nc2ccc(Oc3ccnc4cc(OC)c(OC)cc34)cn2)n1 was > 7.00

Reported pKd for CCCn1cc(OCC(F)(F)F)c(C(=O)Nc2ccc(Oc3ccnc4cc(OC)c(OC)cc34)cn2)n1 was > 7.00

Reported pKd for COc1cc2nccc(Oc3ccc(NC(=O)c4nn(CCNC5CC5)cc4OCC(F)(F)F)nc3)c2cc1OC was > 7.00

Reported pKd for COc1cc2nccc(Oc3ccc(NC(=O)c4nn(CCN)cc4OCC(F)(F)F)nn3)c2cc1OC was ≤ 6.30

Reported pKd for COc1cc2nccc(Oc3ccc(NC(=O)c4nn(CCOC5CCC5)cc4OCC(F)(F)F)nc3)c2cc1OC was > 7.00

Reported pKd for COc1cc2nccc(Oc3ccc(NC(=O)c4nn(C5CC5)cc4OCCC(F)(F)F)nn3)c2cc1OC was > 7.00
